B1: library; numbered along this chain (parent)
chain: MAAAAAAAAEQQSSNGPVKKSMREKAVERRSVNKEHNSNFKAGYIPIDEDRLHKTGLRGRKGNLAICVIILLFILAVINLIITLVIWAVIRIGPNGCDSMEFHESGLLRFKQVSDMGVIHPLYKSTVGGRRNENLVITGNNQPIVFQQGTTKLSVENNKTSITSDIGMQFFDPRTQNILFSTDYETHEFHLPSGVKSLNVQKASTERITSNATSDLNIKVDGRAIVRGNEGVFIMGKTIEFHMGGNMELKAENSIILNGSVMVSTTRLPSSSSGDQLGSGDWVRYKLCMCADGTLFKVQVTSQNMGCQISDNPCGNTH

- Variants of: B1
- Measurement Description: SGCB cell-surface expression functional score (HA stain, bin4 vs bin1, normalised to synonymous) (log10 ratio); higher = more cell-surface SGCB (functional)
SGCB cell-surface expression functional score (log10) class ranges: small value = under -1, mid value = from -1 up to 0.2, large value = 0.2 and over

// bin(item) where item = N253V
large value

Which class does R284H fall in?
mid value

Form: Item = G129V ; Class = ?
mid value

Could you tell me which band E101C belongs to?
small value

Band for G117W ?
small value

Category lookup for the variant Q148F
mid value

Bin this entry: G106K
mid value

Class for I69N ?
large value

Please report the category associated with V89Y , nothing else.
small value

Kindly state the category for this variant: T160R
small value

Assign a category based on measured SGCB cell-surface expression functional score (log10) for R130W and give only the class name.
mid value

// bin(item) where item = A291F
large value

Into which bin does this variant go? F189C
small value

Exercise: read the entry M262G and state which class it falls under.
large value
